# system: recombinant AlinOBP11 (Adelphocoris lineolatus)
# Sequence (F4Y5P9 entry or part of it): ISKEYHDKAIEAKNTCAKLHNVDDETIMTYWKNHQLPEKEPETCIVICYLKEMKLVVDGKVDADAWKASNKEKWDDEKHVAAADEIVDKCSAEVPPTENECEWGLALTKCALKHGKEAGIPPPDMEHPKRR
# measurement-notes: Binding of fluorescent probe 1-NPN to recombinant AlinOBP11 (fluorescence titration, Scatchard plot)
# test-parameters: 2 μM protein in 50 mM Tris-HCl pH 7.4, 1-NPN 1 to 16 μM; read-out: dissociation constant of the AlinOBP11/1-NPN complex
observation-type: pKd
Here pKd is given on a logarithmic scale as minus log10 of the concentration in mol/L.

Query: Need pKd, item c1ccc(Nc2cccc3ccccc23)cc1 [1-NPN, N-phenyl-1-naphthylamine]
Response: 5.23

----------
# system: recombinant AlinOBP11 (Adelphocoris lineolatus)
# measurement-notes: biochemical
# Format: binding
# test-parameters: […]; 2 μM protein, 2 μM 1-NPN, pH 7.4; read-out: Ki (μM) AlinOBP11
observation-type: Ki
Answer with the value and then the unit.

Query: Could you tell me which Ki is on file for Oc1cc(O)c2c(c1)O[C@@H](c1ccc(O)c(O)c1)[C@H](O)C2 [(−)-Catechin] ?
Response: 15.3 µM

----------
Assignment: determine reported Ki for the given compounds.
# system: recombinant AlinOBP11 (Adelphocoris lineolatus)
# measurement-notes: biochemical
# Type: binding
A number alone suffices; assume µM.

Query: // returns reported Ki for input CC1=CC[C@H](C(C)C)C=C1
Response: 20.1

Query: Any idea what its Ki is? The compound is Cc1cc2c(C(C)C)c(O)c(O)c(C=O)c2c(O)c1-c1c(C)cc2c(C(C)C)c(O)c(O)c(C=O)c2c1O
Response: 3.43

----------
# system: recombinant AlinOBP11 (Adelphocoris lineolatus)
# measurement-notes: biochemical
# Format: binding
# test-parameters: 2 μM protein, 2 μM 1-NPN, 50 mM Tris-HCl pH 7.4, competitor 2 to 30 μM, 25°C; read-out: IC50 (μM) AlinOBP11
observation-type: IC50

Query: Lab request: please report IC50 under test system recombinant AlinOBP11 (Adelphocoris lineolatus) for CC(C)=CCC/C(C)=C/CC/C(C)=C/CO [trans,trans-Farnesol]
Response: 25.2 µM

Query: So what IC50 did CCCCCOC(C)=O [Amyl acetate] get with recombinant AlinOBP11 (Adelphocoris lineolatus)?
Response: > 30 µM

Query: // fetch recombinant AlinOBP11 (Adelphocoris lineolatus) IC50 for CCCCCCCCCCC [Undecane]
Response: > 30 µM

Query: # get_value(readout= IC50, system= recombinant AlinOBP11 (Adelphocoris lineolatus)) for CCCCC=O [Valeraldehyde]
Response: > 30 µM

Query: Value wanted: IC50 (recombinant AlinOBP11 (Adelphocoris lineolatus)) of entry CC/C=C\CCOC(C)=O [cis-3-hexenyl acetate]
Response: > 30 µM

Query: # get_value(readout= IC50, system= recombinant AlinOBP11 (Adelphocoris lineolatus)) for CCCCCCOC(=O)CCCCC [Hexyl hexanoate]
Response: > 30 µM

Query: Lab note: need IC50 for C/C1=C\CC/C(C)=C/CC(C)(C)/C=C/C1 [α-Humulene] on recombinant AlinOBP11 (Adelphocoris lineolatus), anyone have it?
Response: > 30 µM

Query: What is its IC50 for recombinant AlinOBP11 (Adelphocoris lineolatus)? Entry: CCCCCC(C)=O [2-Heptanone]
Response: > 30 µM

Query: Form: Entry = C[C@@H]1O[C@@H](OC[C@H]2O[C@@H](Oc3c(-c4ccc(O)c(O)c4)oc4cc(O)cc(O)c4c3=O)[C@H](O)[C@@H](O)[C@@H]2O)[C@H](O)[C@H](O)[C@H]1O.O [Rutin hydrate] | System = recombinant AlinOBP11 (Adelphocoris lineolatus) | IC50 = ____
Response: 9.89 µM

Query: Notebook: pull reported IC50 for recombinant AlinOBP11 (Adelphocoris lineolatus), entry Cc1ccc(C=O)cc1C [3,4-Dimethyl-benzaldehyde]
Response: > 30 µM

Query: Request body: readout IC50, system recombinant AlinOBP11 (Adelphocoris lineolatus), query CCCCCCCC=O [Octanal] . Return the value.
Response: > 30 µM

Query: Request - read-out IC50 | tested on recombinant AlinOBP11 (Adelphocoris lineolatus) | compound CCCCCCCCC=O [Nonanal]
Response: > 30 µM

Query: Give IC50 (recombinant AlinOBP11 (Adelphocoris lineolatus)) of the following compound: C=C/C(C)=C/CC=C(C)C [E-β-Ocimene]
Response: > 30 µM

Query: # returns recorded IC50 (system: recombinant AlinOBP11 (Adelphocoris lineolatus)) for C=CC(=C)CC/C=C(\C)CCC=C(C)C [trans-β-Farnesene]
Response: > 30 µM

Query: Give recorded IC50 with recombinant AlinOBP11 (Adelphocoris lineolatus) for the following compound: CCCCCCOC(=O)CCC [Hexyl butyrate]
Response: > 30 µM

Query: What is its IC50 for recombinant AlinOBP11 (Adelphocoris lineolatus)? Entry: C=CC(=C)CCC=C(C)C [Myrcene]
Response: > 30 µM

Query: Notebook: pull reported IC50 for recombinant AlinOBP11 (Adelphocoris lineolatus), entry CCCCC(C)O (centres unmarked) [2-Hexanol]
Response: > 30 µM

Query: Observed IC50 on recombinant AlinOBP11 (Adelphocoris lineolatus) for CCCCCCCCCOC(C)=O [Nonyl acetate] , please.
Response: > 30 µM

Query: Field: IC50 (recombinant AlinOBP11 (Adelphocoris lineolatus)). Entry: CCCCCO [Pentanol]
Response: > 30 µM

Query: Reported IC50 for recombinant AlinOBP11 (Adelphocoris lineolatus), given Oc1cc(O)c2c(c1)O[C@@H](c1ccc(O)c(O)c1)[C@H](O)C2 [(−)-Catechin] ?
Response: 19.3 µM

----------
Provide the reported Ki of each item.
# system: recombinant AlinOBP11 (Adelphocoris lineolatus)
# measurement-notes: biochemical
# Format: binding
# test-parameters: calculated from IC50: Ki = [IC50]/(1+[1-NPN]/K1-NPN); 2 μM protein, 2 μM 1-NPN, pH 7.4; read-out: Ki (μM) AlinOBP11
Note to self: number, then unit, no commentary.

Query: Item: C[C@@H]1O[C@@H](OC[C@H]2O[C@@H](Oc3c(-c4ccc(O)c(O)c4)oc4cc(O)cc(O)c4c3=O)[C@H](O)[C@@H](O)[C@@H]2O)[C@H](O)[C@H](O)[C@H]1O.O [Rutin hydrate] Test system: recombinant AlinOBP11 (Adelphocoris lineolatus) Read-out: Ki Value: ?
Response: 7.78 µM

Query: What is its Ki for recombinant AlinOBP11 (Adelphocoris lineolatus)? Entry: CC(C)=CCC/C(C)=C/CC/C(C)=C/CO [trans,trans-Farnesol]
Response: 19.3 µM

Query: Param readout = Ki; param system = recombinant AlinOBP11 (Adelphocoris lineolatus); param query = C=CC(C)(O)CCC=C(C)CCC=C(C)C (mixture of isomers) [Nerolidol] ; response: value
Response: 20.8 µM

The reported numbers originate from paper PMC4887496.
